Measured values drawn from patent USRE48461E1 for this set.

Test system: AR mRNA
method.summary: Dose-dependent antisense inhibition of human AR in HuVEC cells (electroporation, qRT-PCR RTS3559, IC50)
Type: cell-based
test.conditions: 31.25 nM; HuVEC, ~16 h; Table 8
Oligonucleotides are written 5' to 3', each unit as a sugar letter and its base; * is a phosphorothioate linkage, no mark a phosphodiester; rarer units and linkages stand in square brackets, end groups in braces. Plain capitals give the bases only. e = 2'-O-(2-methoxyethyl) (MOE); k = constrained ethyl (cEt); [5mC] = 5-methylcytosine; d = 2'-deoxy (DNA)
measurement.name: percent inhibition of AR (%)
Write the number in % without appending the unit.

Would you kindly share the measured percent inhibition of AR for 569228 (antisense eT*eT*kG*kA*kT*dT*dT*dA*dA*dT*dG*dG*kT*kT*kG*e[5mC]) [compound 569228] ?
26

More entries:
// returns reported percent inhibition of AR for input 560098 (kT*kG*kA*dT*dT*dT*dA*dA*dT*dG*dG*dT*dT*kG*k[5mC]*kA; further chemistry not given here) [compound 560098]
30

Please report the recorded percent inhibition of AR for 569213 (antisense kT*kG*kA*dT*dT*dT*dA*dA*dT*dG*dG*dT*kT*kG*k[5mC]*eA) [compound 569213] .
35

Tell me the measured percent inhibition of AR of 560131 (antisense kT*kT*kG*dA*dT*dT*dT*dA*dA*dT*dG*dG*kT*kT*kG*e[5mC]) [compound 560131] , please.
16

# percent inhibition of AR lookup, item 549457 (kT*kT*kG*dA*dT*dT*dT*dA*dA*dT*dG*dG*dT*kT*kG*k[5mC]) [compound 549457]
34

// percent inhibition of AR lookup, key: 569222 (antisense eT*eT*kG*kA*kT*dT*dT*dA*dA*dT*dG*dG*dT*kT*kG*k[5mC]) [compound 569222]
36

Which measured percent inhibition of AR value corresponds to 569216 (antisense eT*kG*kA*kT*dT*dT*dA*dA*dT*dG*dG*dT*kT*kG*k[5mC]*eA) [compound 569216] ?
38

Recorded percent inhibition of AR of 569236 (antisense eT*kG*kA*kT*dT*dT*dA*dA*dT*dG*dG*kT*kT*kG*e[5mC]*eA) [compound 569236] , please.
17

Return reported percent inhibition of AR; argument: 549458 (kG*kT*kT*dG*dA*dT*dT*dT*dA*dA*dT*dG*dG*kT*kT*kG) [compound 549458]
30

What value of measured percent inhibition of AR is listed for 560137 (antisense TTGATTTAATGGTTGC; all C 5-methyl, all phosphorothioate, sugars by position not given here; further chemistry not fully specified) [compound 560137] ?
35
